- tested target: human cathepsin S (CatS) (Homo sapiens)
- Construct: made in house; host or cells: baculovirus system (insect cells)
- assay: Recombinant human cathepsin S (CatS) fluorogenic substrate inhibition assay
- Type: biochemical
- measurement conditions: recombinant human CatS, 10 μM Z-Valine-Valine-Arginine-AMC, pH 5.0; average of results obtained; read-out: CatS IC50
property measured: pIC50
For clarity, pIC50 is expressed as the negative log10 of concentration in mol/L.

Here are 2 compounds together with their reported answers.
Query: Bench note: what pIC50 did CC(C)=CC(=O)NCc1cc(-c2nn(CC(O)CN3CCC(c4ccccc4)CC3)c3c2CN(S(C)(=O)=O)CC3)ccc1C(F)(F)F (stereo not drawn) [Example 274] show?
Reply: 8.00

Query: Entry CN(C)CC(=O)NCc1cc(-c2nn(CC(O)CN3CCC(N4CCCC4)CC3)c3c2CN(S(C)(=O)=O)CC3)ccc1C(F)(F)F (stereo not drawn) [Example 243] please
Reply: 5.28

Okay, now this compound:
Query: // lookup pIC50 for CC(C)CC(=O)NCc1cc(-c2nn(CC(O)CN3CCC(c4nnnn4Cc4ccccc4)CC3)c3c2CN(S(C)(=O)=O)CC3)ccc1C(F)(F)F (stereo not drawn) [Example 256]
Reply: 7.15

---

- tested target: human cathepsin S (CatS) (Homo sapiens)
- Construct: made in house; host or cells: baculovirus system (insect cells)
- assay: Recombinant human cathepsin S (CatS) fluorogenic substrate inhibition assay
- Type: biochemical
- measurement conditions: recombinant human CatS, 10 μM Z-Valine-Valine-Arginine-AMC, pH 5.0; average of results obtained; read-out: CatS IC50
- Method: Recombinant human cathepsin S (CatS) was expressed in the baculovirus system and purified in one step with a thiopropyl-sepharose column. […] The assay is run in 150 mM sodium acetate pH 5.0 containing 1.5 mM DTT and 150 mM NaCl. […] Measurements are taken every min for 20 min. The rate is calculated from the slope of the increase in fluorescence and the percent inhibition is calculated from this.
Each record's IC50 is compared with bin A: < 100 nM; bin B: ≥ 100 nM and < 600 nM; bin C: ≥ 600 nM to give its class.

Worked examples follow.
Query: Band assignment needed for CC(C)CC(=O)NCc1cc(-c2nn(CC(O)CN3CCC(N4CCCC4)CC3)c3c2CN(S(C)(=O)=O)CC3)ccc1C(F)(F)F (stereo not shown) please.
Reply: bin B

Query: Let us now turn to `CN(C)Cc1cc(-c2nn(CCCN3CCC(N4CCCC4=O)CC3)c3c2CN(S(C)(=O)=O)CC3)ccc1C(F)(F)F`
Reply: bin C

Query: # iterate: `CC(C)OC(=O)NCc1cc(-c2nn(CCCN3CCC(N4CCCC4=O)CC3)c3c2CN(S(C)(=O)=O)CC3)ccc1C(F)(F)F`
Reply: bin A

Query: Now the molecule CC(C)=CC(=O)NCc1cc(-c2nn(CC(O)CN3CCN(c4c(Cl)cncc4Cl)CC3)c3c2CN(S(C)(=O)=O)CC3)ccc1C(F)(F)F (stereo not shown)
Reply: bin A

Query: Note, next up: CC(C)=CC(=O)NCc1cc(-c2nn(CC(O)CN3CCC(c4nc(=O)[nH][nH]4)CC3)c3c2CN(S(C)(=O)=O)CC3)ccc1C(F)(F)F (stereo not shown)
Reply: bin A

Would you kindly look at the next entry?
Query: Would you mind sorting CS(=O)(=O)N1CCc2c(c(-c3ccc(C(F)(F)F)c(CNC(=O)c4ccc(CO)cc4)c3)nn2CC(O)CN2CCC(N3CCCC3=O)CC2)C1 (stereo not shown) into the appropriate category?
Reply: bin A

---

IC50 values, listed per item
- tested target: human cathepsin S (CatS) (Homo sapiens, UniProt P25774)
- Construct: made in house; host or cells: baculovirus system (insect cells)
- Sequence (P25774 115-331): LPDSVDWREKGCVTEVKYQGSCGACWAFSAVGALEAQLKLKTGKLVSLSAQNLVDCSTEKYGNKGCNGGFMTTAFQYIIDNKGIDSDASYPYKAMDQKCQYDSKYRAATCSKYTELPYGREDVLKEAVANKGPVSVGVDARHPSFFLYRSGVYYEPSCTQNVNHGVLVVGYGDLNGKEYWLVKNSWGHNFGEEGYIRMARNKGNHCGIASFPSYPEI
- assay: Recombinant human cathepsin S (CatS) fluorogenic substrate inhibition assay
- Format: biochemical
- measurement conditions: recombinant human CatS, 10 μM Z-Valine-Valine-Arginine-AMC, pH 5.0; average of results obtained; read-out: CatS IC50
Give the number; nM is assumed, so skip it.

Query: # value lookup — system human cathepsin S (CatS) (Homo sapiens, UniProt P25774), readout IC50, item `CS(=O)(=O)N1CCc2c(c(-c3ccc(Cl)c(NC(=O)c4ccc(C#N)cc4)c3)nn2CCCN2CCN(c3cccc(Cl)c3)CC2)C1`
Reply: 580

Query: Consider next the compound Cc1ncsc1C(=O)NCc1cc(-c2nn(CC(O)CN3CCC(N4CCCC4=O)CC3)c3c2CN(S(C)(=O)=O)CC3)ccc1C(F)(F)F (stereo not shown) in the same way.
Reply: 410

Query: Would you kindly repeat that for CC(C)CC(=O)NCc1cc(-c2nn(CC(O)CN3CCC(N4CCOC4=O)CC3)c3c2CN(S(C)(=O)=O)CC3)ccc1C(F)(F)F (stereo not shown) ?
Reply: 140

Query: # iterate: CS(=O)(=O)N1CCc2c(c(-c3ccc(C(F)(F)F)c(CNC(=O)c4ccccn4)c3)nn2CC(O)CN2CCC(N3CCCC3=O)CC2)C1 (stereo not shown)
Reply: 190

Query: Again, but for Cc1nnsc1C(=O)NCc1cc(-c2nn(CC(O)CN3CCC(N4CCCC4=O)CC3)c3c2CN(S(C)(=O)=O)CC3)ccc1C(F)(F)F (stereo not shown)
Reply: 200

Further cases:
Query: Notebook entry, human cathepsin S (CatS) (Homo sapiens, UniProt P25774) assay: IC50 of `CS(=O)(=O)N1CCc2c(c(-c3ccc(Cl)c(NC(=O)c4ccc(F)cc4)c3)nn2CCCN2CCN(c3cccc(Cl)c3)CC2)C1` = ?
Reply: 840

Query: Subsequent entry: CS(=O)(=O)N1CCc2c(c(-c3ccc(C(F)(F)F)c(CNC(=O)c4ccc(F)cc4)c3)nn2CC(O)CN2CCC(N3CCCC3=O)CC2)C1 (stereo not shown)
Reply: 20

Query: Check CS(=O)(=O)N1CCc2c(c(-c3ccc(C(F)(F)F)c(CNC(=O)C4CC4)c3)nn2CC(O)CN2CCC(N3CCCC3=O)CC2)C1 (stereo not shown) too.
Reply: 90

Query: Okay, and CC(=O)NCc1cc(-c2nn(CC(O)CN3CCC(n4c(=O)n(C)c5ccc(N(C)C)nc54)CC3)c3c2CN(S(C)(=O)=O)CC3)ccc1C(F)(F)F (stereo not shown) ?
Reply: 100

Query: Could you do the same for Cn1cncc1C(=O)NCc1cc(-c2nn(CC(O)CN3CCC(N4CCCC4=O)CC3)c3c2CN(S(C)(=O)=O)CC3)ccc1C(F)(F)F (stereo not shown) , please?
Reply: 380

---

IC50 values for the compounds below.
- tested target: human cathepsin S (CatS) (Homo sapiens, UniProt P25774)
- Construct: made in house; host or cells: baculovirus system (insect cells)
- assay: Recombinant human cathepsin S (CatS) fluorogenic substrate inhibition assay
- Format: biochemical
- measurement conditions: recombinant human CatS, 10 μM Z-Valine-Valine-Arginine-AMC, pH 5.0; average of results obtained; read-out: CatS IC50
Provide only the numeric value, understood in nM.

Consider the reported IC50 for these compounds:
Query: Item under review: CS(=O)(=O)c1csc(C(=O)NCc2cc(-c3nn(CC(O)CN4CCC(N5CCCC5=O)CC4)c4c3CN(S(C)(=O)=O)CC4)ccc2C(F)(F)F)c1Cl (stereo not shown) . Reported IC50?
Reply: 600

Query: Now try CC(=O)Nc1cc(C(=O)NCc2cc(-c3nn(CC(O)CN4CCC(N5CCCC5=O)CC4)c4c3CN(S(C)(=O)=O)CC4)ccc2C(F)(F)F)ccn1 (stereo not shown) .
Reply: 250

Query: Here is the next compound: `Cc1coc(NCc2cc(-c3nn(CCCN4CCC(N5CCCC5=O)CC4)c4c3CN(S(C)(=O)=O)CC4)ccc2C(F)(F)F)n1`
Reply: 1660

Query: What do we get for `CN(C)CCC(=O)NCc1cc(-c2nn(CCCN3CCC(N4CCCC4=O)CC3)c3c2CN(S(C)(=O)=O)CC3)ccc1C(F)(F)F` ?
Reply: 1520

Query: Also need CS(=O)(=O)N1CCc2c(c(-c3ccc(Cl)c(CNC(=O)c4ccc(F)cc4)c3)nn2CC(O)CN2CCC(N3CCCCC3=O)CC2)C1 (stereo not shown) , thanks.
Reply: 10

***
Query: Can you share its IC50? I mean this compound: CS(=O)(=O)N1CCc2c(c(-c3ccc(C(F)(F)F)c(CNC(=O)c4ccc[nH]4)c3)nn2CC(O)CN2CCC(N3CCCC3=O)CC2)C1 (stereo not shown)
Reply: 180

Query: Next entry: CC(C)CCNCc1cc(-c2nn(CC(O)CN3CCC(N4CCOCC4)CC3)c3c2CN(S(C)(=O)=O)CC3)ccc1C(F)(F)F (stereo not shown)
Reply: 860

Query: Proceed to `CC(C)NC(=O)NCc1cc(-c2nn(CCCN3CCC(N4CCCC4=O)CC3)c3c2CN(S(C)(=O)=O)CC3)ccc1C(F)(F)F`
Reply: 160

Query: Next record, please: `CS(=O)(=O)N1CCc2c(c(-c3ccc(Cl)c(NC(=O)c4ccc(C(F)(F)F)cc4)c3)nn2CCCN2CCN(c3cccc(Cl)c3)CC2)C1`
Reply: 830

Query: Queued: `CS(=O)(=O)N1CCc2c(c(-c3ccc(C(F)(F)F)c(CNC(=O)Cn4cncn4)c3)nn2CCCN2CCC(N3CCCC3=O)CC2)C1`
Reply: 590
